Test Method Notes: yeast display, Sf9 membrane polyspecificity reagent, FACS + sequencing; frameworks hold sequencing errors
Parameter Measured: polyreactivity (PSR sort gate)

Examples with their reported polyreactivity (PSR sort gate) follow.
QDQLVESGRGLVQAGGSLRLSCAASGSINATNAMGWYRQAPGKERELVPSISYSVSRTYYADSVKGRFTISRDNAKNTVYFQMNSLTPEDTAVYYCAVRQVNWFGIGYEDDYCGQGTQVTVSS	low polyreactivity
QVQLVESGGGLVQAGGSLRLSCAASGLTFQSNAMGWSRQAPGKEREFVAAITSGGNTYYADSVKGRFTISRDNAKNTVYLQMNSLKPEDTAVYYCNADYQDEEDDYWGQGTQVTVSS	low polyreactivity
QVQLVESGGGLVQAGGSLRLSCAASGFTFGWYAMGWYRPAPGKERELVAAITTSGGRTNYADSVKGRFTISRDNAKNTVYLQMNSLKPEDTAVYYCNADSPYYVGGFDYWGQGTQVTVSS	low polyreactivity
QVQLVESGGGLVQAGGSLRLSCAASGFTISPYAMGWYRQAPGKERELVAGITRNGGSTYYADSVKGRFTISRDNAKNTVYLQMNSLKPEDTAVYYCITKYAVEFDYWGQGTQVTVSS	low polyreactivity
QVQLVESGGGLVQAGGSLRLSCAASGSIFRYYAMGWYRQAPGKEREFVAAINTNDAGTYYADSVKGRFTISRDNAKNTVYLQMNSLKPEDTAVYYCAADTGYPFWYDYWGQGTQVTVSS	high polyreactivity

Could you tell me polyreactivity (PSR sort gate) for each of these sequences? They are listed below.
1. QVQLVESGGGLVQAGGSLRLSCAASGGIFWNYAMGWYRQAPGKERELVAVINTGGRTYYADSVKGRFTISRDNAKYTVYLQMNSLKPEDTAVYYCAAKDFTIHYDYWGQGTQVTVSS
2. QVQLVESGGGLVQAGGSLRLSCAASGRTLSNYAMGWYRQAPGKERELVAAISSSGSTNYADSVKGRFTISRDNAKNTVYLQMNSLKPEDTAVYYCAAESWFLRWYRYDYWGQGTQVTVSS
3. QVQLVESGGGLVQAGGSLRLSCAASGLTFSLYAMGWYRQAPGKERELVAAISWTGGSTYYADSVKGRFTISRDNAKNTVYLQMNSLKPEDTAVYYCNARYTLFARYCYDYWGQGPQVTVSS
4. QVQLVESGGGLVQAGGSLRLSCAASGFISFGNGMGWYRQAPGKERELVAAITRRGGSTYYADSVKGLFTISRDNAKNTVYLQMNSLKPEDTAVYYCDARYLGSTSTNRPPMDYWGQGTQVTVSS
5. QVQLVESGGGLVQAGGSLRLSCAASGSTFTYYTMGWYRQAPGKERELVAAISRTTGSTYYADSVKGRFTISRDNAKNTVYLQMNSLKPEDTAVYYCAADYYTRYQYGYWGQGTQVTVSS
6. QVQLVESGGGLVQAGGSLRLSCAASGRTFPRYAMGWYRQAPGKERELVAAITRRGSSTYYADSVKGRFTISRDNAKNTVYLQMNSLKPEDTAVYYCATSYHGYYYRYDYWGQGTQVTVSS

Output line:
["high polyreactivity", "low polyreactivity", "low polyreactivity", "high polyreactivity", "low polyreactivity", "high polyreactivity"]
